Test system: AP-1
protocol_details: Cellular transrepression assay (AP-1 luciferase reporter in A549 cells, PMA activated)
Assay type: cell-based
assay_setup: 7 h, 10 ng/ml PMA, read-out: AP-1 Max % inhibition (measured in cellular transrepression assay)
Hi all, reminder that labels come from Emax, split as A: < 40%; B: ≥ 40% and < 50%; C: ≥ 50%

molecule	qualitative_label
Cc1ccc2c(n1)Oc1nc(-c3ccc(OC(C)C)cc3)ccc1[C@H]2C(C)(C)C(=O)Nc1nncs1	A
CN(C)C(=O)c1ccc(-c2ccc3c(n2)Oc2nc(N(C)C)ccc2C3C(C)(C)C(=O)Nc2nncs2)cc1 (centres unmarked)	C
Cc1nnc(NC(=O)C(C)(C)C2c3ccc(Cl)nc3Oc3nc(-c4ccc(C(=O)N(C)C)cc4)ccc32)s1 (centres unmarked)	B
Cc1ccc2c(n1)Oc1nc(-c3ccc(C(C)(C)O)cc3)ccc1[C@H]2C(C)(C)C(=O)Nc1nncs1	B
CN(C)C(=O)c1ccc(-c2ccc3c(n2)Oc2ncccc2C3C(C)(C)C(=O)Nc2nncs2)cc1 (single isomer, unassigned) [Example 8]	B
CC(=O)c1ccc(-c2ccc3c(n2)Oc2nc(C)ccc2C3C(C)(C)C(=O)Nc2nncs2)cc1 (centres unmarked)	B

Q: Class for Cc1ccc2c(n1)Oc1nc(-c3ccc(SC(C)C)cc3)ccc1[C@H]2C(C)(C)C(=O)Nc1nncs1 ?
Ans: A

Q: Category of Cc1ccc2c(n1)Oc1nc(-c3ccc(C(=O)N4CCOCC4)cc3)ccc1C2C(C)(C)C(=O)Nc1nncs1 (centres unmarked) :
Ans: B

Q: Record CCN(C)C(=O)c1ccc(-c2ccc3c(n2)Oc2nc(C)ccc2[C@@H]3C(C)(C)C(=O)Nc2nnc(C(=O)NC(C)C)s2)cc1 — which class?
Ans: C

Q: Exam item: assign CCN(C)C(=O)c1ccc(-c2ccc3c(n2)Oc2nc(C)ccc2[C@@H]3C(C)(C)C(=O)Nc2nnc(C(=O)NC)s2)cc1 to the correct category.
Ans: A

Q: State the band of CCN(C)C(=O)c1ccc(-c2ccc3c(n2)Oc2nc(C)ccc2C3C(C)(C)C(=O)Nc2nncs2)cc1F (centres unmarked)
Ans: B

Q: Categorize the following entry: CN(C)C(=O)c1ccc(-c2ccc3c(n2)Oc2nc(Cl)ccc2C3C(C)(C)C(=O)Nc2nnc(C(=O)NC3CC3)s2)cc1 (centres unmarked)
Ans: C
